Target: NaV1.5 (Homo sapiens (Human), UniProt Q14524)
Sequence (Q14524 other isoform, or with tags, fused parts or gaps): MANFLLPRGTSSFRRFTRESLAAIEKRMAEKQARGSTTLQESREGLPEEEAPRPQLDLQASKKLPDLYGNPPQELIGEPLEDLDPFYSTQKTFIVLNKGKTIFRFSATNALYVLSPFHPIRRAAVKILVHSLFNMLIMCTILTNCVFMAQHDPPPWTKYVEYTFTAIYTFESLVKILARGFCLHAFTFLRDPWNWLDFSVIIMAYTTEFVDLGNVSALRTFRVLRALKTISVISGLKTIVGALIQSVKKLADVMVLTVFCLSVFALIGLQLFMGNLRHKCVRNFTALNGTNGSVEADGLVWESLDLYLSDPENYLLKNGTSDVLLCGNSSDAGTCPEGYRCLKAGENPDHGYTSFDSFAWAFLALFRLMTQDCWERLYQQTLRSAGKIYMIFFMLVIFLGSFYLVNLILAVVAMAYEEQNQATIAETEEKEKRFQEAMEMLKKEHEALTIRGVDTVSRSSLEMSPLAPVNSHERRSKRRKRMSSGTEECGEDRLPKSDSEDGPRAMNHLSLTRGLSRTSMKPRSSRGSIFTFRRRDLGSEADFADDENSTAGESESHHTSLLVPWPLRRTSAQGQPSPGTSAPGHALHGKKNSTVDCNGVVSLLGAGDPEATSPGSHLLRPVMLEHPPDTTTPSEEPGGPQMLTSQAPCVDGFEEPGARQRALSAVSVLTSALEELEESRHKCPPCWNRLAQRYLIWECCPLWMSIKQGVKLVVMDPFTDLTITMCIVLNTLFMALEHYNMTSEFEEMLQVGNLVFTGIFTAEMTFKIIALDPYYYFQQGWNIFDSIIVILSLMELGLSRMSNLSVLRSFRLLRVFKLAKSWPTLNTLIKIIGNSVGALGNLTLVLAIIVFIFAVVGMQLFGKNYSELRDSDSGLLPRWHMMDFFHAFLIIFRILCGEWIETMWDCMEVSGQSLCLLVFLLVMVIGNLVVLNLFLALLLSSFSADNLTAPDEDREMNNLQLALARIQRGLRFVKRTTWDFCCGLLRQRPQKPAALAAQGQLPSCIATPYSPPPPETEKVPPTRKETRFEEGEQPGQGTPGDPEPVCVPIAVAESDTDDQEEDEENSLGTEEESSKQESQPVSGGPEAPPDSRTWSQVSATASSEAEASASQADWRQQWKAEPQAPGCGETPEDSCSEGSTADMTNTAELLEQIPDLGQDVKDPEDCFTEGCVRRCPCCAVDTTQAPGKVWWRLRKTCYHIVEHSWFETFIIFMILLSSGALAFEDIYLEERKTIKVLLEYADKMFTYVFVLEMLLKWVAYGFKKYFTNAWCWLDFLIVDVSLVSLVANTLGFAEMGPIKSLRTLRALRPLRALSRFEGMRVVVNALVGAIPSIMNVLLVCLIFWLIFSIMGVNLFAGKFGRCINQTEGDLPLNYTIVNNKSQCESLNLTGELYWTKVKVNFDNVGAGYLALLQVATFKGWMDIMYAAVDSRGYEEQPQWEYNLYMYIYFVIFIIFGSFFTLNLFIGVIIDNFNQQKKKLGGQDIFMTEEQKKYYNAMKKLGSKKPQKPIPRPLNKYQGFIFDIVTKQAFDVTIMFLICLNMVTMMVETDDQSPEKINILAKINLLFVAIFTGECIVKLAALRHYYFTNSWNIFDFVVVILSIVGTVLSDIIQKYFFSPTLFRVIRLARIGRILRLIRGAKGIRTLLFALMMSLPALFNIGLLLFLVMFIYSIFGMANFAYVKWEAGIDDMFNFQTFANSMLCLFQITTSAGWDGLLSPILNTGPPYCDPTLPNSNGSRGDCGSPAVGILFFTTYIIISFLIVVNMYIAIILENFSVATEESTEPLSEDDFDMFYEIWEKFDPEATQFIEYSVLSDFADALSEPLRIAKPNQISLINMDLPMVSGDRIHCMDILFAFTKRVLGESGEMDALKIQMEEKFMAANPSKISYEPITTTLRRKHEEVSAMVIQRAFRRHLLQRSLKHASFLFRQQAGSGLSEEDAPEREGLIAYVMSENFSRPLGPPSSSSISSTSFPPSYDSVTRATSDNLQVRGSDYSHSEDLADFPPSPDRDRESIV
Assay: Sodium Influx Assay (Flux), NaV1.5
Conditions: read-out: Flux NaV1.5 IC50; Trex HEK293 cells, ANG2 dye, inactivated state
value.kind: IC50 (µM)

1. O=S(=O)(Nc1nccs1)c1cc(Cl)c(N[C@H]2CCCc3ccccc32)cc1F [Example 46]    7.04
2. O=S(=O)(Nc1ccccn1)c1c(F)cc(NCc2c(F)cccc2CN2CCC2)cc1F [Example 328]    30
3. O=S(=O)(Nc1cscn1)c1cc(Cl)c(NC2(c3ccccc3)CCC2)cc1F [Example 18]    11.9
4. C[C@H](Nc1ccc(S(=O)(=O)Nc2cscn2)cc1Cl)c1ccccc1 [Example 24]    8.32

###

IC50 for assorted compounds
Target: NaV1.1 (Homo sapiens (Human))
Experiment: Electrophysiological Assay (EP), patch voltage clamp, NaV1.1;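 also: sodium current block measured at ambient temperature, holding at fully inactivating potential, 20 ms repolarization to −150 mV before test pulse, versus 0.5% DMSO control currents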
Assay type: cell-based
Settings: HEK-293 cells, whole-cell patch clamp
Counter-ions that a name gives are not always drawn.
value.kind: IC50 (µM)

1) O=S(=O)(Nc1cscn1)c1c(F)cc(NCc2c(Cl)cccc2CN2CC3(COC3)C2)cc1F [Example 295, formate]    10
2) C[C@H](Nc1cc(F)c(S(=O)(=O)Nc2nccs2)cc1Cl)c1ccccc1F [Example 45]    0.539
3) CC[C@@H](Nc1ccc(S(=O)(=O)Nc2ncns2)cc1Cl)c1ccccc1 [Example 31]    10
4) O=S(=O)(Nc1cccc(F)n1)c1cc(Cl)c(N[C@H](CN2CCCC2)c2ccccc2)cc1F [Example 72, 2,2,2-trifluoroacetate]    10
5) C[C@H](Nc1cc(F)c(S(=O)(=O)Nc2nccs2)cc1Cl)C1CCCCC1 [Example 42]    6.77
6) O=S(=O)(Nc1cscn1)c1cc(Cl)c(NCc2c(F)ccc(F)c2CO)cc1F [Example 293]    10
7) O=S(=O)(Nc1nccs1)c1ccc(NC2(c3ccccc3)COC2)c(Cl)c1 [Example 103]    10
8) CC[C@H](Nc1ccc(S(=O)(=O)Nc2nccs2)cc1)c1ccccc1 [Example 84]    10
9) O=S(=O)(Nc1nccs1)c1cc(Cl)c(N[C@H](CN2CCCC2)c2ccccc2)cc1F [Example 70]    10
10) CCC(c1ccccc1)N(C)c1ccc(S(=O)(=O)Nc2nccs2)cc1Cl (centres unmarked) [Example 90]    2.01
11) C[C@H](Nc1cc(F)c(S(=O)(=O)Nc2nccs2)cc1Cl)c1cccc(F)c1 [Example 49]    0.26
12) C[C@H](Oc1ccc(S(=O)(=O)Nc2ncns2)cc1Cl)c1ccccc1 [Example 88]    10
13) C[C@H](Nc1cc(F)c(S(=O)(=O)Nc2nccs2)c(F)c1)c1ccccc1F [Example 27]    0.112
14) Cc1cc(S(=O)(=O)Nc2ccncn2)c(F)cc1N[C@@H](C)c1cc(Cl)ccc1F [Example 275]    4.85
15) O=S(=O)(Nc1nccs1)c1ccc(N[C@H](c2ccccc2)C(F)(F)F)c(Cl)c1 [Example 4, formate]    5.31
16) CC(C)CC(Nc1cc(F)c(S(=O)(=O)Nc2nccs2)cc1Cl)c1ccccc1 (centres unmarked) [Example 143]    0.159
17) O=S(=O)(Nc1cscn1)c1cc(Cl)c(N[C@H](c2cc(F)ccc2F)C(F)F)cc1F [Example 335]    10
18) O=S(=O)(Nc1ccncn1)c1cc(Cl)c(N[C@H](c2cc(Cl)ccc2F)C(F)(F)F)cc1F [Example 270]    10
19) O=S(=O)(Nc1cccnn1)c1c(F)cc(NCc2c(F)cccc2CN2CCC2)cc1F [Example 333, formate]    10
20) CN1CC(Oc2cccc(F)c2CNc2cc(F)c(S(=O)(=O)Nc3cscn3)c(F)c2)C1 [Example 326, formate]    10
21) C[C@H](Nc1cc(F)c(S(=O)(=O)Nc2nccs2)cc1Cl)c1cc(Cl)ccc1F [Example 8]    0.42
22) O=S(=O)(Nc1nccs1)c1cc(Cl)c(OCc2cccc3ccncc23)cc1F [Example 11]    10
23) O=S(=O)(Nc1cccc(F)n1)c1cc(Cl)c(NCc2c(F)cccc2CN2CCC2)cc1F [Example 138]    10
24) O=S(=O)(Nc1cccc(F)n1)c1cc(Cl)c(NCc2c(F)ccc(F)c2CN2CCC2)cc1F [Example 131]    10
25) O=S(=O)(Nc1cscn1)c1cc(Cl)c(NCc2c(F)cccc2CN2CC(F)C2)cc1F [Example 247]    10
26) C[C@H](Oc1cc(F)c(S(=O)(=O)Nc2cscn2)cc1Cl)c1c(F)cccc1F [Example 120]    10
27) O=S(=O)(Nc1cscn1)c1cc(Cl)c(NC2(c3ccccc3)CC2)cc1F [Example 20]    10
28) O=S(=O)(Nc1nccs1)c1cc(Cl)c(OCc2ccccc2CN2CCC2)cc1F [Example 136]    10
29) CC[C@@H](Nc1cc(F)c(S(=O)(=O)Nc2nccs2)cc1Cl)c1ccccc1 [Example 39]    1.85
